Target: hGLP-2 receptor (Homo sapiens, UniProt O95838)
Construct: expressed in transfected cells; host or cells: BHK-21 (C13) cells, transient transfection with Lipofectamine 2000
Sequence (O95838 whole entry): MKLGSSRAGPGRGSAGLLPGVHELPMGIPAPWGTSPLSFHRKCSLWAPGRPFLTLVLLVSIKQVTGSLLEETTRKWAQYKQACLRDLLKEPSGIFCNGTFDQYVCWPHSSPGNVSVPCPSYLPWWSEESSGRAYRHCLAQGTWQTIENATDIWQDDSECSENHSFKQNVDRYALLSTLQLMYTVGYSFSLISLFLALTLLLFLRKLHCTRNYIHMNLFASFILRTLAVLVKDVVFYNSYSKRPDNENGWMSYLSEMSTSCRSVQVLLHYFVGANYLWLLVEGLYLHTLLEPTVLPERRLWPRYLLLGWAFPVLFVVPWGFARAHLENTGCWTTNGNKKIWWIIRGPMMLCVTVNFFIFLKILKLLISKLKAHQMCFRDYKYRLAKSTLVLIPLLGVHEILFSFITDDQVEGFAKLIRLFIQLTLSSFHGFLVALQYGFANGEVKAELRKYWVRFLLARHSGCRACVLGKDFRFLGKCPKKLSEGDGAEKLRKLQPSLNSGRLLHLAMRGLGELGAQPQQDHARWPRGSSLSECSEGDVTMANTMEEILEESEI
Assay: In vitro screening for agonism on the GLP-2 receptor recombinantly expressed in BHK-21 cells (CRE-luciferase reporter)
Format: cell-based
PROPERTY_LABEL: EC50 (nM)
Quick reminder: number only, in nM, skip the unit.

>>> value("H-HGEGSFSDELATILEALAASDFISWLISTKITD-NH2 [ZP2268]")
0.00617

Now for the substance whose EC50 we want.
Request: EC50, test system hGLP-2 receptor (Homo sapiens, UniProt O95838), entry H-HGEGSFSDELNTILESLAASDFISWLISTKITD-NH2 [ZP2270]
0.0589

###

Test system: male C57BL mice
Assay: In vivo stimulation of intestinal growth, 200 nmol/kg (Example 11)
Conditions: 200 nmol/kg s.c. once daily for 3 days
PROPERTY_LABEL: Colon-BW, compared to 1559 in % (%)
Quick reminder: number only, in %, skip the unit.

>>> value("H-HGEGSFSDELLTILELLAAADFIAWLIATKITDKKKKKK-NH2 [ZP2412]")
99
>>> value("H-HGEGSFSDELATI LEALAASDFIAWLIATKITDKKKKKK-NH2 [ZP2423]")
109
>>> value("H-HGEGSFSDELATILEALAAADFISWLIATKITD-NH2 [ZP2418]")
100
>>> value("H-HGEGSFSDELATILESLAAADFIAWLIATKITDKKKKKK-NH2 [ZP2415]")
106

Reported Colon-BW, compared to 1559 in %, substance H-HGEGSFSDELATILESLAAADFIAWLIATKITD-NH2 [ZP2414] : ____
106

Do the same for H-HGEGSFSDELATILEALAASDFISWLISTKITDKKKKKK-NH2 [ZP2381] please
104

Do the same for H-HGEGSFSDELNTILESLAASDFISWLISTKITDKKKKKK-NH2 [ZP2382] please
106

###

Test system: male C57BL mice
Assay: In vivo stimulation of intestinal growth, 200 nmol/kg (Example 11)
Conditions: 200 nmol/kg s.c. once daily for 3 days; relative to 1559
# Sensitivity index Si/Colon per entry
Lab note: jot down the number only; don't add units.

Take a look at these entries with their results.
>>> value("H-HGEGSFSDELATILESLAAADFISWLIATKITDKKKKKK-NH2 [ZP2413]")
0.99
>>> value("H-HGEGSFSDELSTILESLAAADFIAWLIATKITDKKKKKK-NH2 [ZP2403]")
1.01
>>> value("H-HGEGSFSDELNTILESLAASDFISWLISTKITDKKKKKK-NH2 [ZP2382]")
0.97
>>> value("H-HGEGSFSDELATILEALAAADFIAWLISTKITD-NH2 [ZP2397]")
1.21
>>> value("H-HGEGSFSDELATILESLAASDFISWLISTKITD-NH2 [ZP2399]")
1.16

Reported Sensitivity index Si/Colon, substance H-HGEGSFSDELFTILEFLAASDFISWLISTKITDKKKKKK-NH2 [ZP2396] : ____
1.02

###

Test system: male C57BL mice
Experiment: In vivo stimulation of intestinal growth, 200 nmol/kg (Example 11)
Conditions: 200 nmol/kg s.c. once daily for 3 days
PROPERTY_LABEL: SI-BW, compared to 1559 in % (%)
Quick reminder: number only, in %, skip the unit.

>>> value("H-HGEGSFSDELFTILEFLAASDFISWLISTKITD-NH2 [ZP2401]")
98

Request: SI-BW, compared to 1559 in %, test system male C57BL mice, entry H-HGEGSFSDELATILESLAAADFIAWLIATKITD-NH2 [ZP2414]
105
